Data provenance is ChEMBL document CHEMBL1201862.

System: HCT-116
test.protocol: NCI tumour cell line growth inhibition, 48 h
Activity calls are given as the source filed them. Cut-off read from the data, not from the text of the source: active = GI50 up to about 1.1 µM and inactive = higher.
measurement.name: GI50

Worked cases, GI50 given:
INSERT INTO assay_data (compound, experimental_value) VALUES
  ('CCc1ccccc1NC(=O)/C(CC(=O)c1c(C)[n+]([O-])c2ccccc2[n+]1[O-])=N\NS(=O)(=O)c1ccc(C)cc1', '16.8 µM (inactive)'),
  ('CC1CC(=O)Nc2ccc(Cl)cc2N1C(=O)CN1CCC(CCCCN(C)C)CC1 (stereo unspecified)', '> 100 µM (inactive)'),
  ('COC(=O)N/N=C(/Cc1occc(=O)c1O)C(=O)Nc1ccc([N+](=O)[O-])cc1[N+](=O)[O-]', '> 100 µM (inactive)'),
  ('Nc1ncnc2c1ncn2C1(CO)OC(CO)C(O)C1O (stereo unspecified)', '> 100 µM (inactive)');

What does the record list as GI50 for CCN(CC)CC(C(=O)Nc1c(C)cccc1C)/C(C)=N\NC(=S)NN (stereo unspecified) ?
> 100 µM (inactive)

Also C(=C\c1cccc(/C=C/c2ccccn2)n1)/c1ccccn1 ?
68.9 µM (inactive)

* * *

Test system: KM-20L2
test.protocol: NCI tumour cell line growth inhibition, 48 h
Activity calls are given as the source filed them. Cut-off read from the data, not from the text of the source: active = GI50 up to about 1.1 µM and inactive = higher.
measurement.name: GI50

INSERT INTO assay_data (molecule, measurement_name, experimental_value) VALUES
  ('O=C1CCNC/C1=C\c1ccccc1', 'GI50', '14.7 µM (inactive)'),
  ('COC(=O)C(=O)C1(CCC(C)=O)c2ccccc2-c2ccccc21', 'GI50', '> 100 µM (inactive)'),
  ('COC(=O)C1CSC(c2csc(CCN)n2)=N1 (centres undefined)', 'GI50', '> 100 µM (inactive)');

What does the record list as GI50 for CC(C)c1ccc(C(c2ccc(OCC(=O)O)cc2)c2ccc(C(C)C)cc(=O)c2O)c(O)c(=O)c1 ?
3.54 µM (inactive)

Also Cn1c2ccccc2c2ccc3c(c21)C(=O)C=CC3=O ?
17.1 µM (inactive)

Also CC1=CP(=O)(c2ccccc2)C=C(C)C1=C(Cl)Cl (centres undefined) ?
2.48 µM (inactive)

Also CCc1ccccc1NC(=O)/C(CC(=O)c1c(C)[n+]([O-])c2ccccc2[n+]1[O-])=N\NS(=O)(=O)c1ccc(C)cc1 ?
> 100 µM (inactive)

Also CCN(CC)CC(C(=O)Nc1c(C)cccc1C)/C(C)=N\NC(=S)NN (centres undefined) ?
> 100 µM (inactive)

Also C[n+]1c2ccccc2c(CNc2ccc(S(=O)(=O)N=C(N)N)cc2)c2ccccc21 ?
13.6 µM (inactive)

Also CC(C)[Si](OCC1CC(C[C@H]2CC(C[C@H]3C[C@@H](CO[Si](C(C)C)(C(C)C)C(C)C)OC(C)(C)O3)OC(C)(C)O2)OC(C)(C)O1)(C(C)C)C(C)C (some centres undefined) ?
> 100 µM (inactive)

Also Cc1cc(Cl)ccc1N1C(=O)C(=O)C(c2nc3ccccc3o2)C(=O)C1=O ?
> 100 µM (inactive)

Also N#CC1(C#N)C(c2ccccc2)C=CC12OCCCO2 (centres undefined) ?
68.5 µM (inactive)

Also CC1(C)COC(C2(C)C(=O)C=C(c3ccccc3)c3ccccc32)=N1 (centres undefined) ?
40.5 µM (inactive)

Also O/N=C(\c1nc2ccc(Cl)cc2nc1O)C(O)c1ccc(Cl)cc1Cl (centres undefined) ?
> 100 µM (inactive)

Also CC(=O)OC1COC(N2C(=O)C(=O)c3cc(Br)c([N+](=O)[O-])cc32)C(OC(C)=O)C1OC(C)=O (centres undefined) ?
> 100 µM (inactive)

Also CCCCCCCCCCCCCC(=O)CSCCNC(=O)CCNC(=O)[C@@H](O)C(C)(C)COP(=O)(O)OP(=O)(O)OCC1OC(n2cnc3c(N)ncnc32)C(O)C1OP(=O)(O)O (some centres undefined) ?
19.4 µM (inactive)

Also Brc1ccc(C2CC(c3cccc4ccccc34)=Nc3ccccc3S2)cc1 (centres undefined) ?
96.8 µM (inactive)

Also CCc1cccc(CC)c1NC(=O)C(=O)Cc1nc2ccccc2o1 ?
> 100 µM (inactive)

Also C[C@]12CC[C@H](O)CC1=CC[C@@H]1C2CC[C@]2(C)NC(=O)C(C#N)CC12 (some centres undefined) ?
> 100 µM (inactive)

* * *

Tested on: DLD-1
test.protocol: NCI tumour cell line growth inhibition, 48 h
Activity calls are given as the source filed them. No stated cut-off is given here; in the data, active = GI50 up to about 1.1 µM and inactive = higher.
measurement.name: GI50

Worked cases, GI50 given:
INSERT INTO assay_data (molecule, measurement_name, experimental_value) VALUES
  ('c1c[nH]c(Cc2nc(Cc3c[nH]cn3)c[nH]2)n1', 'GI50', '4.22 µM (inactive)'),
  ('Brc1ccc(C2CC(c3cccc4ccccc34)=Nc3ccccc3S2)cc1 (stereo unspecified)', 'GI50', '51.8 µM (inactive)'),
  ('C[n+]1c2ccccc2c(CNc2ccc(S(=O)(=O)N=C(N)N)cc2)c2ccccc21', 'GI50', '17.3 µM (inactive)'),
  ('CC1CN1c1c(C(=O)/C=C/c2ccccc2)c(-c2ccccc2)nn(C)c1=O (stereo unspecified)', 'GI50', '15.2 µM (inactive)'),
  ('CCCCN1C(=O)C2c3[nH]c4ccccc4c3C3CCCCC3C2C1=O.CCCCN1C(=O)C2c3[nH]c4ccccc4c3[C@@H]3CCCCC3C2C1=O (stereo unspecified)', 'GI50', '12.9 µM (inactive)'),
  ('Cc1cc(Cl)ccc1N1C(=O)C(=O)C(c2nc3ccccc3o2)C(=O)C1=O', 'GI50', '32.9 µM (inactive)'),
  ('COc1cc(C2C(C(=O)Nc3cc(F)c(F)cc3F)=C(C)NC(C)=C2C(=O)Nc2cc(F)c(F)cc2F)ccc1O', 'GI50', '21.5 µM (inactive)'),
  ('Cc1ccc(C(=O)NC(C)(C)C)cc1/N=N/N(C)C', 'GI50', '> 100 µM (inactive)');

What does the record list as GI50 for Clc1cc2nc[nH]c2cc1Cl ?
> 100 µM (inactive)

Also CC(C)(C)C1CCP(=O)(c2ccccc2)CC1 (stereo unspecified) ?
> 100 µM (inactive)

Also COc1cc(C(C)c2cc3c(cc2OCCO)OCO3)cc(OC)c1OC (stereo unspecified) ?
1.71 µM (inactive)

Also Cc1cc2c(=O)cc(-c3ccc(C(=O)O)cc3)oc2c(C(N)=O)c1C ?
> 100 µM (inactive)

Also COC(=O)[C@@H]1c2cc3c(c(O)c2[C@@H](OC)C[C@@]1(C)O)C(=O)c1c(O)cc2c(c1C3=O)OC1O[C@@]2(C)[C@H](O)[C@@H](N(C)C)[C@@H]1O ?
1.86 µM (inactive)

* * *

Tested on: DU-145
test.protocol: NCI tumour cell line growth inhibition, 48 h
Active and inactive are the calls of the source. Rule as the data show it: active = GI50 up to about 1.1 µM and inactive = higher.
Outcome (select one): t (active), f (inactive)

// known answers, use as guide
INSERT INTO results (compound, study_target, discrete_label) VALUES
  ('C[N+](C)(C)CC(=O)N/N=C(/CC(=O)CC(C1=C(O)c2ccccc2OC1)c1ccccc1)C(=O)Nc1cccc(Cl)c1 (stereo unspecified)', 'DU-145', 'f'),
  ('CN1CCN(c2ncc3c(n2)sc2c(=O)n(-c4ccccc4)cnc23)CC1', 'DU-145', 'f'),
  ('COc1ccc(/N=C(/C[S+]([O-])c2ccc(C)cc2)C(F)(F)F)cc1 (stereo unspecified)', 'DU-145', 'f'),
  ('Oc1ccc(/N=N/c2ccc(Cl)cc2)cc1', 'DU-145', 'f'),
  ('Cc1ccc(O)c(Cc2nc3ccccc3nc2-c2cccc(Cl)c2)c1', 'DU-145', 'f');

Per the assay record, what outcome was assigned to CC(=O)Nc1ccc(/C=C/C(=O)N2CC(CCl)c3c2cc(N)c2ccccc32)cc1 (stereo unspecified) ?
t

* * *

Test system: K562
test.protocol: NCI tumour cell line growth inhibition, 48 h
Activity calls are given as the source filed them. Rule as the data show it: active = GI50 up to about 1.1 µM and inactive = higher.
measurement.name: GI50

Worked cases, GI50 given:
INSERT INTO results (compound, experimental_value) VALUES
  ('Cc1cc(O)c2c(c1)C(O)(c1ccc3c(c1O)C(=O)c1c(O)cc(C)cc1C3(O)C1OC(CO)C(O)C(O)C1O)c1cccc(O)c1C2=O (stereo unspecified)', '5.15 µM (inactive)'),
  ('CC1C(c2ccccc2)OP(=O)(OC(C#N)c2ccccc2)N1C (stereo unspecified)', '39.3 µM (inactive)'),
  ('c1ccc(CC(Nc2cccnc2)c2ccccc2)cc1 (stereo unspecified)', '17.5 µM (inactive)'),
  ('O=C1OC(c2ccccc2)C2CC3CC4(CCC3CN12)OCCO4 (stereo unspecified)', '45.9 µM (inactive)');

What does the record list as GI50 for COc1c(Cl)cc(S(=O)O)cc1Cl ?
> 100 µM (inactive)

Also C[n+]1cccc(NC(=O)c2ccc(NC(=O)C34CCC(C(=O)Nc5ccc(C(=O)Nc6ccc[n+](C)c6)cc5)(CC3)CC4)cc2)c1 ?
2.55 µM (inactive)

Also Cc1cccc2nc3cccc(C(=O)NCCC[N+](C)(CCCNC(=O)c4cccc5nc6cccc(C)c6nc45)Cc4ccc([N+](=O)[O-])n4C)c3nc12 ?
0.407 µM (active)

Also COc1ccccc1NC(=O)O/N=C(/Cl)C(C)C ?
2.24 µM (inactive)

Also O=C1CCCCC/C1=C\c1ccccc1 ?
> 100 µM (inactive)

Also CC1(C)CC(C)(C)C1=NNC(N)=O ?
> 100 µM (inactive)

Also O=C1CSC2=NC3=C(CSC/C3=C\c3ccccc3)C(c3ccccc3)N12 (stereo unspecified) ?
39.4 µM (inactive)
